target_or_system: human bradykinin 1 receptor (B1R) (Homo sapiens, UniProt P46663)
Construct: expressed in transfected cells; host or cells: CHO K1 cells
Sequence (P46663 whole entry): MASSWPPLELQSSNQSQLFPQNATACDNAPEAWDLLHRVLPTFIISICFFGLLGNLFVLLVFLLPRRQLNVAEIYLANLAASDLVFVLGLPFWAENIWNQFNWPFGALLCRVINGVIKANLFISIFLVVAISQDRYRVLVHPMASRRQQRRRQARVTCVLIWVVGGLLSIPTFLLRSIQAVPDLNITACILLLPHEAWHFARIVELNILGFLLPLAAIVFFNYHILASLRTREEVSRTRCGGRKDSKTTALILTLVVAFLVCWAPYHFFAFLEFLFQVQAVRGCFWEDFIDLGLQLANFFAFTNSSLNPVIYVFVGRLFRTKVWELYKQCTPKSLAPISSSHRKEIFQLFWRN
procedure_summary: Functional investigation on the human bradykinin 1 receptor (B1R), Ca2+ FLIPR assay in CHO K1 hB1R cells
Format: cell-based
details: B1R antagonism human; test substance 10 μM; Ca2+ FLIPR, CHO K1 hB1R cells
result_type: B1R Ant. h [10 μM] % Inhibition

Some compounds with known B1R Ant. h [10 μM] % Inhibition results, for comparison:
[
  {
    "compound": "Cc1ccc(S(=O)(=O)N(C)CCOCC(=O)NC2CCC(C(c3cccc(F)c3)N(C)C)CC2)cc1 (stereo not shown)",
    "B1R Ant. h [10 μM] % Inhibition": "−4%"
  },
  {
    "compound": "COc1ccc(S(=O)(=O)N2CCCCC2COCC(=O)NC2CCC(C(c3ccc(F)cc3)N(C)C)CC2)cc1OC (stereo not shown)",
    "B1R Ant. h [10 μM] % Inhibition": "−14%"
  },
  {
    "compound": "COc1cc(C)c(S(=O)(=O)N(CCOCC(=O)NCC2CCC(C(c3ccccc3)N(C)C)CC2)Cc2ccccc2)c(C)c1C (stereo not shown)",
    "B1R Ant. h [10 μM] % Inhibition": "76%"
  }
]

Moving on to another compound below.
Given the entry CN(C)C(CCc1ccccc1)C1CCC(CNC(=O)COCC2CCCN(S(=O)(=O)c3ccccc3)C2)CC1 (stereo not shown) , report its measured B1R Ant. h [10 μM] % Inhibition.
22%

----------
target_or_system: human μ opiate receptor (Homo sapiens)
Construct: purchased PerkinElmer Life Sciences, Zaventem, Belgium RB-HOM; host or cells: CHO-K1 cells (membrane preparation)
Sequence (P35372 whole entry): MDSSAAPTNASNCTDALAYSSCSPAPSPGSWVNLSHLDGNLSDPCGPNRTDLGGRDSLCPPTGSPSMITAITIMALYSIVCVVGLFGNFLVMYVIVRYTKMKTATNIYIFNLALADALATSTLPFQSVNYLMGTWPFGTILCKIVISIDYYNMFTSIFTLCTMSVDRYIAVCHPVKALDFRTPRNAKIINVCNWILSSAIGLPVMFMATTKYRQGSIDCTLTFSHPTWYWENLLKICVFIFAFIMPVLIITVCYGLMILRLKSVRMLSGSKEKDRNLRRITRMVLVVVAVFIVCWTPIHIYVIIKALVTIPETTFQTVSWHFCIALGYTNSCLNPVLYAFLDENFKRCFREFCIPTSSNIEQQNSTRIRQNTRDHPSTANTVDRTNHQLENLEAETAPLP
procedure_summary: Affinity for the human μ opiate receptor ([3H]-naloxone displacement, CHO-K1 receptor membrane preparation, SPA)
Type: binding
details: test concentration of 1 μM; read-out: μ (binding on the μ opioid receptor, % inhibition)
This section presents molecules with their documented inhibition at 1 µM values.
Your answer is read as %, so omit the unit and give the number.

Some molecules with recorded inhibition at 1 µM:
[
  {
    "molecule": "CN(C)C(c1ccccc1)C1CCC(NC(=O)COCCN(C)S(=O)(=O)c2ccc(Cl)cc2Cl)CC1 (stereo not shown)",
    "target_or_system": "human μ opiate receptor (Homo sapiens)",
    "inhibition at 1 µM / %": 49
  },
  {
    "molecule": "CN(C)C(c1ccccc1)C1CCC(NC(=O)COc2ccccc2N(C)S(=O)(=O)c2ccc(Cl)c(Cl)c2)CC1 (stereo not shown)",
    "target_or_system": "human μ opiate receptor (Homo sapiens)",
    "inhibition at 1 µM / %": 87
  },
  {
    "molecule": "COc1cc(C)c(S(=O)(=O)N(C)CCOCC(=O)NCCC2CCC(C(c3cccc(F)c3)N(C)C)CC2)c(C)c1C (stereo not shown)",
    "target_or_system": "human μ opiate receptor (Homo sapiens)",
    "inhibition at 1 µM / %": 83
  },
  {
    "molecule": "COc1cc(C)c(S(=O)(=O)N(C)CCOCC(=O)NCC2CCC(C(c3cccs3)N(C)C)CC2)c(C)c1C (stereo not shown)",
    "target_or_system": "human μ opiate receptor (Homo sapiens)",
    "inhibition at 1 µM / %": 96
  }
]

Which measured inhibition at 1 µM value corresponds to COc1cc(C)c(S(=O)(=O)N2CCC(OCC(=O)NCCC3CCC(C(c4cccs4)N(C)C)CC3)C2)c(C)c1C (stereo not shown) ?
90

Entry CN(C)C(c1cccc(F)c1)C1CCC(NC(=O)COCCN(C)S(=O)(=O)c2c(Cl)cccc2Cl)CC1 (stereo not shown) : reported inhibition at 1 µM = ?
84

Bench note: what inhibition at 1 µM did Cc1cc(C)c(S(=O)(=O)N2CCC(OCC(=O)NC3CCC(C(c4ccccc4)N(C)C)CC3)C2)c(C)c1 (stereo not shown) show?
94
